# Target of assay: T1, human CD19 (human, UniProt P15391 20-556)
# T1 construct: CD19 as expressed on Raji, NALM-6 and SU-DHL-6 cells; also called CD19 antigen; B-cell surface antigen B4
# T1 sequence: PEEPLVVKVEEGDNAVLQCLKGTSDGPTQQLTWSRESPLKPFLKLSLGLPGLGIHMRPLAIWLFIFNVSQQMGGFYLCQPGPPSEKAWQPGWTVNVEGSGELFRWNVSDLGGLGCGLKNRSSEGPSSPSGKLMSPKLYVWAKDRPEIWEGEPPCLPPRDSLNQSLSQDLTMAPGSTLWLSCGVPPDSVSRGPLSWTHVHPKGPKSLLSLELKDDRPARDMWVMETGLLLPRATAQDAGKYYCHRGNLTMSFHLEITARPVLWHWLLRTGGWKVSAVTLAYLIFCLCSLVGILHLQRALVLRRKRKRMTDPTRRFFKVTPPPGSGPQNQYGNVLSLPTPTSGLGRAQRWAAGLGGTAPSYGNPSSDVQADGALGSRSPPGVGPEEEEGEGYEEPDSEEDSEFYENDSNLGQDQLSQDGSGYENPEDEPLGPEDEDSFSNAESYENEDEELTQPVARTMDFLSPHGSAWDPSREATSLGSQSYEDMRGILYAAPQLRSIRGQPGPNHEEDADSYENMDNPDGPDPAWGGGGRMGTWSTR
# Assay info: flow cytometry on Raji cells, PE-labelled anti-human secondary antibody, MFI against antibody concentration
Readout name: binding result

Binder | Readout name | Result
VH20/VL40 (antibody, human IgG1, V domains shown) VH: QVQLVQSGGGLVQPGGSLRLSCVASGVSLPDYGVSWVRQAPGKGLEWVSVIWGSETTYYNSALKSRFTISRDNAKNSLYLQMNSLRAEDTAVYYCARHYYYGGSYAMDYWGQGTLVTVSS VL: DIVMTQTPSSLSASVGDRVTITCRASQDISKYLNWYQQKPGKVPNLLIYHTSRLHSGVPSRFSGSGSGTEFTLTISSLQPEDFATYYCQQGNTLPYTFGGGTKVEIKR | binding result | binds
VH20/VL43 (antibody, human IgG1, V domains shown) VH: QVQLVQSGGGLVQPGGSLRLSCVASGVSLPDYGVSWVRQAPGKGLEWVSVIWGSETTYYNSALKSRFTISRDNAKNSLYLQMNSLRAEDTAVYYCARHYYYGGSYAMDYWGQGTLVTVSS VL: DIVMTQTPSSLSASVGDRVTITCRASQDISKYLNWYQQKPGKAPKLLIYHTSRLHSGVPSRFSGSGSGTDFTLTISSLQPEDFATYYCQQGNTLPYTFGPGTKVDIKR | binding result | binds
